# target_system: T1, hCMV gB (expressed in HEK293T cells) (human cytomegalovirus, UniProt P06473 32-906)
# T1 construct: whole, on cells; also called envelope glycoprotein B; UL55
# T1 sequence (P06473 32-906 limits assumed): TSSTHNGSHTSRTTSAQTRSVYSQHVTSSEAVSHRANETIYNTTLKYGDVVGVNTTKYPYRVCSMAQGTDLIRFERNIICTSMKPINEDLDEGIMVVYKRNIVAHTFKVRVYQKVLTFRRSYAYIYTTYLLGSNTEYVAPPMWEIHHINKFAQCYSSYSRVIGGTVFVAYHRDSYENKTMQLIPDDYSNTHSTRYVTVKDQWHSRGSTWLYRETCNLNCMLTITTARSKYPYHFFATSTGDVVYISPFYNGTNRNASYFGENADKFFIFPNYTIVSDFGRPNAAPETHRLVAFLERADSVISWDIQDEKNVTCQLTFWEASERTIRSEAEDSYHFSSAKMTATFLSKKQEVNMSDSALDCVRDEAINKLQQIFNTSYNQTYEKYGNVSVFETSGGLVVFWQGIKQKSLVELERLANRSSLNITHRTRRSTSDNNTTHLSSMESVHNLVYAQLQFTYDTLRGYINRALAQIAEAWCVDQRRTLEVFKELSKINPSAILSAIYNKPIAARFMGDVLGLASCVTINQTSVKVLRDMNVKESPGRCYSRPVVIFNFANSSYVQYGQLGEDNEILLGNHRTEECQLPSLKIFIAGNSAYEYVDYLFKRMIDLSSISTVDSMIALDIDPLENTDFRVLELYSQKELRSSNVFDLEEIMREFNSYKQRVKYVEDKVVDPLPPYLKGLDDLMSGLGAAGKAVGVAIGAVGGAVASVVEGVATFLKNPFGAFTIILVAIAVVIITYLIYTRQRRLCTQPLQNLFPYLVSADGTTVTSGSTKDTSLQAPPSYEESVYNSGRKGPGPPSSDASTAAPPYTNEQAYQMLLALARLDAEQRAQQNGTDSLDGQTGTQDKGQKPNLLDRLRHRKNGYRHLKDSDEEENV
# assay_comment: competitor: 7H3-biotin; cell staining

binder	uom	Inhibition of binding (%)
6B4 (antibody, V domains shown, human IgG; also called 6B4-biotin) VH: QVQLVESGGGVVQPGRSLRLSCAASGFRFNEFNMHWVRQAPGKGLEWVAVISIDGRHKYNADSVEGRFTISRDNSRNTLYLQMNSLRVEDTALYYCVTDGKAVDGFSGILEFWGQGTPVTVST VL: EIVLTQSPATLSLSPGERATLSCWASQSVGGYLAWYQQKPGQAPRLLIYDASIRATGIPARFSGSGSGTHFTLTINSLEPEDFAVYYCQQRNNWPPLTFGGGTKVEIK	%	0
7H3 (antibody, V domains shown, human IgG; also called 7H3-biotin) VH: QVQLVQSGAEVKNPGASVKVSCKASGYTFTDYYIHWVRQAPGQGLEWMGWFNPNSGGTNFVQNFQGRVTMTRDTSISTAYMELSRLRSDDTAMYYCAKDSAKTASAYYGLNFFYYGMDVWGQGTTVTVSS VL: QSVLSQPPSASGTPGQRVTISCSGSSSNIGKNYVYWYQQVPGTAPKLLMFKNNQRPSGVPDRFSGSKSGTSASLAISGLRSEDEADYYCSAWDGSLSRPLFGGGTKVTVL	%	100
5F1 (antibody, V domains shown, human IgG; also called 5F1-biotin) VH: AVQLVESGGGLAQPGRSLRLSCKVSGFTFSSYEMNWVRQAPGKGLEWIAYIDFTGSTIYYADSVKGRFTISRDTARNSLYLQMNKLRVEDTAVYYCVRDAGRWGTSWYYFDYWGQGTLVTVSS VL: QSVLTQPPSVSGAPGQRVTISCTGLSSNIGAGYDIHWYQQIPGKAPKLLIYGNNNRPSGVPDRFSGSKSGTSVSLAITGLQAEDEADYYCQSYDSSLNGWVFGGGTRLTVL	%	0
2B11 (antibody, V domains shown, human IgG; also called 2B11-biotin) VH: AVRLVESGGGLAQPGRSLRLSCQVSGFTFGSYEMNWVRQAPGKGLEWIAYIDFTGSTIYYADSVKGRFTISRNTARNSLYLQMNSLRVEDTAVYYCVRDAGRWGTSWYYFDYWGQGTRVTVSP VL: QSVLTQPPSVSGAPGQRVTISCTGISSNIGAGYDIHWYQQIPGKAPKLLVYGNNNRPSGVPDRFSGSKSGTSVSLAITGLQVEDEADYYCQSYDNSLNGWVFGGGTRLTVL	%	0
10C6 (antibody, V domains shown, human IgG; also called 10C6-biotin) VH: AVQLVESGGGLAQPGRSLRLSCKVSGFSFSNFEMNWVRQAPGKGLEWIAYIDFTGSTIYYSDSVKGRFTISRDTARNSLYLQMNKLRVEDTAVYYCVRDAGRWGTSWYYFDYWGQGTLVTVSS VL: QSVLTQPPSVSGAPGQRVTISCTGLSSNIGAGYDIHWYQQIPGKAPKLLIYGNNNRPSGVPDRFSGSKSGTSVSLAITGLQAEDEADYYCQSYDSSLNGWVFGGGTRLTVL	%	0
4H9 (antibody, V domains shown, human IgG; also called 4H9-biotin) VH: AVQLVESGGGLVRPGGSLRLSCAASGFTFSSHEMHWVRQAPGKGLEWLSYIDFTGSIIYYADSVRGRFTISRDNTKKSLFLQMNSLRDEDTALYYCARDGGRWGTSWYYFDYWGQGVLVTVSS VL: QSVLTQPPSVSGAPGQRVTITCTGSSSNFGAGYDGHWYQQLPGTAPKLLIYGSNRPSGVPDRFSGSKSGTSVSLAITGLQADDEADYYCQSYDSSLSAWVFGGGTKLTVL	%	0
